Listed binders paired with reported pEC50
Target: T1, human DLL3 on SHP-77 cells (human, UniProt Q9NYJ7 27-618)
T1 construct: also called DLL3-expressing cells (SHP-77)
T1 sequence: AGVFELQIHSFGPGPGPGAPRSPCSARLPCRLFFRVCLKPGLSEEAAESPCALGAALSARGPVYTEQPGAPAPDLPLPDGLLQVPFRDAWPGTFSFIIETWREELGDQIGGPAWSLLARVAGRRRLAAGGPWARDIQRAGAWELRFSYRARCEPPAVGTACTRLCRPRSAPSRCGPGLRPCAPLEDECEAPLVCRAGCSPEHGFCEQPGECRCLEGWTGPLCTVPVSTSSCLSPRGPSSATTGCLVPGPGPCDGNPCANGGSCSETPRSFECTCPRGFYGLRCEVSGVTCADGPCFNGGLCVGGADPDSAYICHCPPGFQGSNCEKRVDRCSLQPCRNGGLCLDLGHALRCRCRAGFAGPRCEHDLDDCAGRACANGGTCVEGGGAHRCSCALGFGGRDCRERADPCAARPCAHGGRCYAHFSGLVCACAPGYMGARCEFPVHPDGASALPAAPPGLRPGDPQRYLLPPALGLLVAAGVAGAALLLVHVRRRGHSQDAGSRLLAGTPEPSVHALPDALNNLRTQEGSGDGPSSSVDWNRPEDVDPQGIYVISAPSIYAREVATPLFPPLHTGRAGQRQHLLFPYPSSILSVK
Assay: flow cytometry, SHP-77 cells
pEC50 here: minus log base 10 of the concentration, concentration in moles per litre.

Solved entries:
BINDER	pEC50
46A5A4 mouse hybridoma-derived anti-DLL3 chimeric antibody (antibody, V domains shown) VH: QVQLQQSDAELVKPGASVKISCKVSGYTFTDHTIHWMKQRPEQGLEWIGYIYPRDGYTMYNEKFKGKATLTADKSSSTAYMQLNSLTSEDSAVHFCARAFHALDYWGQGTSVTVSS VL: DIQMTQTTSSLSASLGDRVTFTCSASQGISNYLNWYQQKPDGTIKLLIYYTSSLHSGVPSRFSGSGSGTDYSLTISNLEPEDIATYYCQQYSKLPYTFGGGTKLEIK	8.92
H1-39E2D11 mouse hybridoma-derived humanized anti-DLL3 antibody (antibody, V domains shown) VH: QVQLVQSGAEVKKPGASVKVSCKASGYTFISYWITWVRQAPGQGLEWMGDIYPGSGSTTNYNEKFKSRVTMTRDTSTSTVYMELSSLRSEDTAVYYCARETTVGGAYAMDYWGQGTLVTVSS VL: EIVLTQSPATLSLSPGERATLSCRASQSINNNLHWYQQKPGQAPRLLIYYVSQSISGIPARFSGSGSGTDFTLTISSLEPEDFAVYYCQQTNSWPLTFGGGTKLEIK	8.67
H-46A5A4 mouse hybridoma-derived humanized anti-DLL3 antibody (antibody, V domains shown) VH: QVQLVQSGAEVKKPGASVKVSCKASGYTFTDHTIHWVRQAPGQGLEWMGYIYPRDGYTMYNEKFKGRVTMTRDTSTSTVYMELSSLRSEDTAVYYCARAFHALDYWGQGTLVTVSS VL: DIQMTQSPSSLSASVGDRVTITCSASQGISNYLNWYQQKPGKAPKLLIYYTSSLHSGVPSRFSGSGSGTDFTFTISSLQPEDIATYYCQQYSKLPYTFGGGTKLEIK	8.87
H2-45E4D7 mouse hybridoma-derived humanized anti-DLL3 antibody (antibody, V domains shown) VH: QVQLVQSGAEVKKPGASVKVSCKASGYTFTSHWITWVRQAPGQGLEWMGDIYPISGSTNNNEKFRNRVTMTRDTSTSTVYMELSSLRSEDTAVYYCAKIITVGGAYVMDYWGQGTLVTVSS VL: EIVMTQSPATLSVSPGERATLSCRASQSVRNNLHWYQQKPGQAPRLLIKYVSQSISGIPARFSGSGSGTEFTLTISSLQSEDFAVYYCQQSNSWPLTFGGGTKLEIK	8.65
H1-45E4D7 mouse hybridoma-derived humanized anti-DLL3 antibody (antibody, V domains shown) VH: QVQLVQSGAEVKKPGASVKVSCKASGYTFTSHWITWVRQAPGQGLEWMGDIYPISGSTNNNEKFRNRVTMTRDTSTSTVYMELSSLRSEDTAVYYCAKIITVGGAYVMDYWGQGTLVTVSS VL: EIVMTQSPATLSVSPGERATLSCRASQSVRNNLHWYQQKPGQAPRLLIYYVSQSISGIPARFSGSGSGTEFTLTISSLQSEDFAVYYCQQSNSWPLTFGGGTKLEIK	8.29

-- ask Tell me measured pEC50 for 39E2D11-1 mouse hybridoma-derived anti-DLL3 chimeric antibody (antibody, V domains shown) VH: QVQLQQSGAELVKPGASVKMSCKASGYTFISYWITWVKQRPGQGLEWIGDIYPGSGSTTNYNEKFKSKATLTVDTSSSTAYMQLSSLTSEDSAVYYCARETTVGGAYAMDYWGQGTSVTVSS VL: DIVLTQSPATLSVTPGDSVSLSCRASQSINNNLHWYQQKSHESPRLLIKYVSQSISGIPSRFSGSGSGTDFTLTINSVETEDFGMYFCQQTNSWPLTFGAGTKLELK please.
-- reply 8.83
